FYI, the data here is from PubChem BioAssay (NCI).

- Test system: NCI-H322M lung
- assay_procedure: NCI-60 one-dose screen, 48 h (100 = growth as untreated, 0 = no growth, -100 = all killed)
- cond: 10 µM unless noted
Compounds without any hit were thinned out: in the full panel of roughly 83,000, 20% have a hit.
assay_metric: growth (%)
Give bare numbers, in %.

{"columns": ["compound", "target_desc", "result_units", "recorded_measurement"],
 "data": [
  ["Cc1[nH]c(C(=O)Nc2ccc(C(=O)NCCN)cc2OC(C)C)c(Cl)c1Cl", "NCI-H322M lung", "%", 53.3],
  ["Cc1c(C(=O)NCCN2CCOCC2)cn2ncnc(Oc3ccc(NC(=O)Nc4ccc(Cl)c(C(F)(F)F)c4)cc3)c12", "NCI-H322M lung", "%", 73.8],
  ["COc1ccc(OC)c(/C=C/C(=O)N/N=C/c2ccccc2)c1", "NCI-H322M lung", "%", 79.6],
  ["Cc1ccc(/C=N\\NC(=O)c2[nH]c3ccc(F)cc3c2-c2ccccc2)cc1", "NCI-H322M lung", "%", 57.7],
  ["NC[C@@H]1O[C@H](O[C@@H]2[C@@H](CO)OC(O[C@@H]3[C@@H](O)[C@H](N)C[C@H](N)[C@H]3OC3O[C@H](CN)[C@@H](O)[C@H](O)[C@H]3N)[C@@H]2O)[C@H](N)[C@@H](O)[C@@H]1O (some centres undefined)", "NCI-H322M lung", "%", 120]
]}

Provide each entry's growth from the list below.
1. COc1cccc(/C=C2\C=C(c3ccccc3)N(Cc3ccccc3)C2=O)c1
2. c1cc(-c2nnc(SSc3ncnc4nc[nH]c34)o2)ccn1
3. C/C=C(\C)C(=O)N[C@H]1[C@@H](OC(C)=O)C[C@]2(C)C3CC[C@@]4(C)C(CC[C@@H]4C(C)N(C)C)C3CCC2[C@H]1O (some centres undefined)
4. COC(=O)/C=C1\S/C(=N\Nc2ccc([N+](=O)[O-])cc2[N+](=O)[O-])N(C2CCCCC2)C1=O
5. Cc1ccc(/C=C(\C#N)n2nc3cccc(F)c3n2)cc1
6. O=C(Nc1ccc(Br)cc1F)c1cc(Br)ccc1O

[51, 55.9, 67.7, 99.3, 88.7, -4.81]

Provide each entry's growth from the list below.
1. Oc1ccc(-c2nc3ccc4[nH]ncc4c3c3c2CCCC3)c2cccnc12
2. COc1ccc2[nH]c(-c3ccccc3)c(/C=C(\C#N)S(=O)(=O)c3ccccc3)c2c1
3. NC(=O)Nc1ccc2ncnc(Nc3ccc(Cl)cc3)c2c1
4. COc1ccc(/C=C/c2c(C(=O)/C=C/c3ccc(C(F)(F)F)cc3)c(C)nc3ccccc23)cc1
5. c1ccc2c(-c3nc(-c4c[nH]c5ccncc45)cs3)c[nH]c2c1
6. Cc1cccc2c1S/C(=C/c1ccc([N+](=O)[O-])cc1)C2=O

1: 11.3; 2: 77.8; 3: 18; 4: 6.19; 5: 79.1; 6: 96.3

Provide each entry's growth from the list below.
1. COc1cc(Nc2cn[nH]c2-c2ccc(Cl)cc2)cc(OC)c1OC
2. CCOC(=O)Nc1ccc(-c2nc(-c3cccc(OCCN4CCOCC4)c3)c(-c3ccnc(Br)c3)[nH]2)cc1

[79.7, 58]

* * *

Please provide measured growth for the entries that follow.
- Test system: UACC-62 melanoma
- assay_procedure: NCI-60 one-dose screen, 48 h (100 = growth as untreated, 0 = no growth, -100 = all killed)
- cond: 10 µM unless noted
- Protocol: Growth inhibition of the UACC-62 human tumor cell line is measured as a screen for anti-cancer activity. Cells are grown in 96 well plates and exposed to the test compound for 48 hours. Compounds are tested at a single concentration, which is 10^-5 M for most compounds. The reported endpoint is percent growth (GI% or GIPRCNT), where numbers from 0 - 100% represent growth inhibition, and numbers from -100% - 0 represent cell death. For example, a value of 40 represents 60% growth inhibition. […]
The panel holds about 83,000 compounds, 20% with a hit somewhere; the sample as a whole holds those more often.
Answers are plain numbers, in %.

Worked cases, growth given:
{"columns": ["compound", "result_units", "recorded_measurement"],
 "data": [
  ["Cc1cc(C)c(-c2c(N)cc(Br)cc2Br)c(N)c1", "%", 58],
  ["Nc1nc(-c2cccc3ccccc23)cc2ccccc12", "%", 23.5],
  ["C/C(=C(/c1ccccc1)c1ccc(N2C(=O)c3cccc4c(N5CCN(C)CC5)ccc(c34)C2=O)cc1)c1ccccc1", "%", 73.5]
]}

Provide each entry's growth from the list below.
1. Nc1nc(Cl)cc(=O)n1Cc1ccccc1
2. CCOC(=O)c1cn2ncnc(Oc3ccc(NC(=O)NCCN4CCN(C)CC4)c(Cl)c3)c2c1C
3. Cc1cccc(NCc2cn(-c3ccc(C(=O)O)cc3)nc2-c2ccc(C(=O)O)cc2)n1
4. CC([C@H]1CCC2C3CCC4C[C@@H](NC=O)CC[C@]4(C)C3CC[C@@]21C)N(C)C (stereo not given in full)
5. Cc1c(C(=O)NCCCc2ccccc2)sc2ncc(-c3ccc(Br)cc3)n12
6. CNC(=O)c1[nH]cc(-c2ccccc2)c1-c1cc(OC)c2c(c1OC)OCO2
7. O=c1ccc(N=Nc2ccccc2)ccc1Cl

1: 88.6; 2: 34; 3: 101; 4: -51.3; 5: 95.7; 6: 90.8; 7: 55.7
